The reported numbers originate from the supplement of paper PMC11908140.

B1: library; numbered along this chain (parent)
chain: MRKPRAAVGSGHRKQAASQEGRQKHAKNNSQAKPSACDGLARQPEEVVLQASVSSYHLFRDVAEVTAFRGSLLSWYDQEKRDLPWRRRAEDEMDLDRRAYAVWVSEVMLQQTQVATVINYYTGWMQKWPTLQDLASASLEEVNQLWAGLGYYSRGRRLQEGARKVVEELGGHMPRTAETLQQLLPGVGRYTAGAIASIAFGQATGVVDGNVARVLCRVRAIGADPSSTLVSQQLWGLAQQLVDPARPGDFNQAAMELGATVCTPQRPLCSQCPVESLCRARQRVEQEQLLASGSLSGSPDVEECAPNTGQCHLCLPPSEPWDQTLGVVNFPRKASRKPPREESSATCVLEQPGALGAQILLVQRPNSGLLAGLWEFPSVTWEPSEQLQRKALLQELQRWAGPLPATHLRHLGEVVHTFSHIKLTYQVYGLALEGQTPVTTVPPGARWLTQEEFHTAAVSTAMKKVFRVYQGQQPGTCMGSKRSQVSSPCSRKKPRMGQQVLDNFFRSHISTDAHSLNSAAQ

Variants of: B1
measurement.description: 8OG:A repair function score (normalized; synonymous = 0, nonsense = -1) (normalized log-likelihood score); higher = more repair activity (WT-like);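 further: cells sorted at 72 h after reporter transfection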
test.context: with 8OG:A DNA repair reporter (GFP) in HEK-293 MUTYH KO cells
For each entry below, report its 8OG:A repair function score value.

In one line, give reported 8OG:A repair function score of the entry Q181I . -0.0381

Give a short answer stating reported 8OG:A repair function score for Q386Y . 0.41

Report measured 8OG:A repair function score; entry is S518D -0.00955

Please report 8OG:A repair function score for the following variant: S384I 0.0514

Report 8OG:A repair function score for Q202L -0.163

Please look at the items below and tell me 8OG:A repair function score for each one, in order.
1. F376S
2. V114M
3. E64L
4. N251K
5. R409D
6. V362G
7. G309S
8. A259Q

[-0.657, -1.07, -0.0405, -0.983, -0.0632, -0.901, -0.0582, 0.0355]

Take each entry in turn and give its 8OG:A repair function score.
1. P488D
2. G205R
3. C304K

[-0.00371, -0.953, -0.535]

Quick one: give me 8OG:A repair function score for each item below, same order please.
1. E382H
2. F505H

1: 0.042; 2: -0.0303

// for each variant in input: emit 8OG:A repair function score
1. Q240K
2. G248S
3. A334E
4. K80I

[-0.932, -0.709, -0.0264, -0.35]
